Sourced from patent US20230142274A1

assay: Pharmacokinetic experiment in mouse; assay type: in vivo; conditions: female CB17-SCID mice, oral dose 25 mg/kg
Decision: Max. Drug Conc. compared against 10000 ng/mL; not below it gives 1, below it gives -1.

Examples with answers:
COMPOUND: CC(C)OC(=O)N[C@H]1CC[C@H](c2ncc(-c3ccc(Nc4cn(C)nn4)cc3S(=N)(=O)C3CC3)s2)CC1 (stereo partly shown)
GROUP LABEL: -1
--
COMPOUND: COc1ccc(-c2ccc(-c3cnc([C@H]4CC[C@H](NC(=O)OC(C)C)CC4)s3)c([S@@](=N)(=O)C3CC3)c2)cn1 (stereo in doubt)
GROUP LABEL: 1
--
COMPOUND: CC(C)OC(=O)NC1CCC(c2ncc(-c3ccc(Nc4cnn(C)c4)cc3S(=O)(=O)C3CC3)s2)CC1 (stereo not shown)
GROUP LABEL: 1
--
COMPOUND: Cc1cc(Nc2ccc(-c3cnc(C4CCC(NC(=O)OC(C)C)CC4)s3)c(S(=N)(=O)C3CC3)c2)n[nH]1 (stereo not shown)
GROUP LABEL: -1
--
COMPOUND: CC(C)OC(=O)NC1CCC(c2ncc(-c3ccc(Nc4ccc(F)cn4)cc3S(=N)(=O)C3CC3)s2)CC1 (stereo not shown)
GROUP LABEL: 1
--
COMPOUND: Cc1cc(Nc2ccc(-c3cnc([C@H]4CC[C@H](NC(=O)OC(C)C)CC4)s3)c(S(=O)(=O)C3COC3)c2)n[nH]1
GROUP LABEL: -1

Continue with the compound presented below.
[ask] Quick check, Max. Drug Conc. >= 10000 ng/mL? CC(C)OC(=O)Nc1ccc(-c2cnc([C@H]3CC[C@H](NC(=O)OC(C)C)CC3)s2)c(S(=N)(=O)C2CC2)c1 (stereo partly shown)
[reply] 1

###

experiment: Pharmacokinetic experiment in mouse; format: in vivo; conditions: mouse, plasma; female CB17-SCID mice, oral dose 25 mg/kg; read-out: Drug Elimination Half-life (converted)
Form field: half-life (one value per entry).
Number in h, nothing else.

COMPOUND: CC(C)OC(=O)Nc1ccc(-c2cnc([C@H]3CC[C@H](NC(=O)OC(C)C)CC3)s2)c(S(=N)(=O)C2CC2)c1 (stereo partly drawn) [Example 68]
half-life (h): 5

compound Cc1cc(Nc2ccc(-c3cnc([C@H]4CC[C@H](NC(=O)OC(C)C)CC4)s3)c(S(=O)(=O)C3COC3)c2)n[nH]1 [Example 92] , half-life observed: 3.6

Query CC(C)OC(=O)NC1CCC(c2ncc(-c3ccc(Nc4ccc(F)cn4)cc3S(=N)(=O)C3CC3)s2)CC1 (stereo not drawn) [Example 81] yields half-life of 10

Record CC(C)OC(=O)N[C@H]1CC[C@H](c2ncc(-c3ccc(Nc4cn(C)nn4)cc3S(=N)(=O)C3CC3)s2)CC1 (stereo partly drawn) [Example 54] , field half-life: 3.1

Looking up CC(C)OC(=O)NC1CCC(c2ncc(-c3ccc(Nc4cnn(C)c4)cc3S(=O)(=O)C3CC3)s2)CC1 (stereo not drawn) [Example 70] , I found its half-life recorded as 5

Given item Cc1cc(Nc2ccc(-c3cnc(C4CCC(NC(=O)OC(C)C)CC4)s3)c(S(=N)(=O)C3CC3)c2)n[nH]1 (stereo not drawn) [Example 50] , the value recorded as its half-life is 4.7

###

Reported IC50 values for a set of compounds
system: Daudi cells; assay: Inhibition of human Daudi lymphoma cell proliferation (Cell-Titer Glo); type: cell-based; conditions: Homo sapiens, 72 h, 3 days incubation, read-out: Anti-Proliferative Activity Against Daudi cells IC50
Quick note: give the figure in nM, leave out the unit.

Solved cases (5 shown):
COMPOUND: Cc1cc(Nc2ccc(-c3ccc([C@H]4CC[C@H](NC(=O)OC(C)C)CC4)s3)c(S(=O)(=O)C3CC3)c2)n[nH]1
TARGET DESC: Daudi cells
VALUE UNIT: nM
IC50: 7
--
COMPOUND: Cc1cc(Nc2ccc(-c3ccc([C@H]4CC[C@@H](NC(=O)OC(C)C)CC4)s3)c(S(=O)(=O)C3CC3)c2)n[nH]1
TARGET DESC: Daudi cells
VALUE UNIT: nM
IC50: 127
--
COMPOUND: Cc1cc(Nc2ccc(-c3nc4c(s3)CCN(C(=O)OC(C)C)CC4)c(S(=O)(=O)C3CC3)c2)n[nH]1
TARGET DESC: Daudi cells
VALUE UNIT: nM
IC50: 468
--
COMPOUND: CC(C)OC(=O)Nc1ccc(-c2cnc(C3CCC(NC(=O)OC(C)C)CC3)s2)c([S+]([O-])C(C)C)c1 (centres unmarked)
TARGET DESC: Daudi cells
VALUE UNIT: nM
IC50: 420
--
COMPOUND: CC(C)OC(=O)Nc1ccc(-c2cnc([C@H]3CC[C@H](NC(=O)OC(C)C)CC3)s2)c(P2(=O)CCCC2)c1
TARGET DESC: Daudi cells
VALUE UNIT: nM
IC50: 680

Per the records, this compound ( CC(C)OC(=O)N[C@H]1CC[C@H](c2ncc(-c3ccc(Nc4cnn(C)c4)cc3S(=N)(=O)C3CC3)s2)CC1 (some centres unmarked) ) has IC50 equal to 30

Consider CC(C)OC(=O)Nc1ccc(-c2ncc(-c3ccc(Nc4cn(C)nn4)cc3S(=O)(=O)C3CC3)s2)cc1 . Its measured IC50 is 125

CC(C)OC(=O)N[C@H]1CC[C@H](c2ncc(-c3ccc(Nc4ccc(C(F)(F)F)cn4)cc3S(=N)(=O)C3CC3)s2)CC1 (some centres unmarked) yielded IC50 of 250

Please fill in: IC50 reported for Cc1cc(Nc2ccc(-c3cnc([C@H]4CC[C@H](NC(=O)OC(C)C)CC4)s3)c(S(=O)(=O)C3CC3)c2)nn1C = 6

Memo: Cc1cc(Nc2ccc(-c3cnc([C@H]4CC[C@H](NC(=O)OC(C)C)CC4)s3)c(S(=O)(=O)C3CN(C)C3)c2)n[nH]1 , reported IC50: 14

Sure, the documented IC50 for CC(C)OC(=O)N[C@H]1CC[C@H](c2ncc(-c3ccc(Nc4cnn(CCF)c4)cc3S(=N)(=O)C3COC3)s2)CC1 (some centres unmarked) is 40

Item: CC(C)OC(=O)NC1CCC(c2ncc(-c3ccc(N4CCCO4)cc3S(=N)(=O)C3CC3)s2)CC1 (centres unmarked) | IC50: 5200

// CCNC(=O)c1ccc(-c2cnc([C@H]3CC[C@H](NC(=O)OC(C)C)CC3)s2)c(S(=O)(=O)C2CC2)c1 : IC50 value = 700

Data point: CC(C)OC(=O)N[C@H]1CC[C@H](c2ncc(-c3ccc(Nc4ncco4)cc3S(=N)(=O)C3CC3)s2)CC1 (some centres unmarked) ; IC50 = 36
